The values you see were collected from PubChem BioAssay AID488969.

Known z-score of a selection of compounds
# Target entity: Metabotropic glutamate receptor 8 (Rattus norvegicus) (UniProt P70579)
# Sequence (P70579 whole entry, looked up): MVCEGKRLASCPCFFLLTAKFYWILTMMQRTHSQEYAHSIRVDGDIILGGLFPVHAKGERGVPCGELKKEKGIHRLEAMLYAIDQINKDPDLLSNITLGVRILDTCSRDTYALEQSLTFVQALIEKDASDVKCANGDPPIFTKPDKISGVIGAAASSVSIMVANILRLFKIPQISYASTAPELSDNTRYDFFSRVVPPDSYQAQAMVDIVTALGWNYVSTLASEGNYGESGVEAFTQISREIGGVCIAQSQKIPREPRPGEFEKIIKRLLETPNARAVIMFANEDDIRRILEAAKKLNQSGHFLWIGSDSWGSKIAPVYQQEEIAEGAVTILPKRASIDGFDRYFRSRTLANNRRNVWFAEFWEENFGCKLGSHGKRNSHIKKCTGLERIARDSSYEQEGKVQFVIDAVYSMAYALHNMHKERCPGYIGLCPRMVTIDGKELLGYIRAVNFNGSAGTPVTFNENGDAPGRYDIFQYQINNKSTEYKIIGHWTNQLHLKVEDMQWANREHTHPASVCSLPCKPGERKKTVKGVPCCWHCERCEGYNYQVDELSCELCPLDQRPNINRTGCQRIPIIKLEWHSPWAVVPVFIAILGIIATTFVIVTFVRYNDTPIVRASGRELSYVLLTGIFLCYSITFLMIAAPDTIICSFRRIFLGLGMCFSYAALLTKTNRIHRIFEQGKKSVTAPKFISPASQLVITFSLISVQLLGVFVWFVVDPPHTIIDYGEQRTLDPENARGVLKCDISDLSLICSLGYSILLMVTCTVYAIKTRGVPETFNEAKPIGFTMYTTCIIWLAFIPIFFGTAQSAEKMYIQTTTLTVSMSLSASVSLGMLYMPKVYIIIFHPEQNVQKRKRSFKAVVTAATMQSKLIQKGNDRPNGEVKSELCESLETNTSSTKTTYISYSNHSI
# Test: mGluR8 Gi/Go-coupled signaling modulation – cell-based, rat, thallium flux, HTS, primary screen (AID 488969)
# Measurement setup: HEK293 rat mGluR8, GIRK thallium flux, FluoZin2; at 10 µM; stronger effect = higher value; submaximal glutamate (EC20) added with thallium
Over roughly 110,000 compounds, “z-score” has its median near -0.1; the highest 2% begin near 2. Shown is part of a subset that was picked to be rich in the highest values.
Kindly provide the number alone.

For orientation, consider the following solved cases.
# Compound, z-score
records = [
    ("CC(C)OCCCNC(=O)c1ccc(Br)cc1", 0.954),
    ("COC(=O)c1ccc(NC(=O)CNCc2ccncc2)cc1", -0.143),
    ("CN1CCN(/C=C2\\SC(=S)NC2=O)CC1", -0.54),
    ("CN1CCC/C1=C/C=C1\\SC(=S)NC1=O", 2.4),
    ("CCN(CC)C(=O)Cn1nc(C)c2ccccc2c1=O", -0.346),
    ("CCN(CC)CCC(=O)Nc1ccc2c(c1)N(C(=O)CN(CC)CC)c1ccccc1CC2", -0.214),
]

For the compound Cc1ccn2c(C(=O)N/N=C/c3ccc(CNC(=O)C(=O)Nc4ccc(C)c(C)c4)o3)c(C)nc2c1 , what z-score is on record?
0.623

For the compound Cc1cccc(CC2CC(=O)N(c3ncccn3)C2=O)c1 (configuration not stated) , what z-score is on record?
-0.533

====

# Target entity: Metabotropic glutamate receptor 8 (Rattus norvegicus)
# Test: mGluR8 Gi/Go-coupled signaling modulation – cell-based, rat, thallium flux, HTS, primary screen (AID 488969)
# Measurement setup: HEK293 rat mGluR8, GIRK thallium flux, FluoZin2; at 10 µM; stronger effect = higher value; submaximal glutamate (EC20) added with thallium
The full ranking holds about 110,000 compounds; the median of “z-score” is about -0.1, and the highest 2% start at about 2. This excerpt belongs to a sample that is enriched for the highest values.
Property: z-score

For orientation, consider the following solved cases.
# Compound, Target entity, z-score
records = [
    ("COc1ccc(NC(=O)COC(=O)CC2CC3CCC2C3)c([N+](=O)[O-])c1 (stereo not given)", "Metabotropic glutamate receptor 8 (Rattus norvegicus)", -0.182),
    ("Cc1ccc(CNC(=O)COc2ccccc2-c2ccccc2)cc1", "Metabotropic glutamate receptor 8 (Rattus norvegicus)", -0.0564),
    ("CCOC(=O)c1c(C)[nH]c(C(=O)/C(C#N)=C/c2ccc(OC(F)F)c(OC)c2)c1C", "Metabotropic glutamate receptor 8 (Rattus norvegicus)", -0.315),
    ("COc1ccc(NC(=O)COC(=O)CC23CC4CC(CC(C4)C2)C3)c([N+](=O)[O-])c1", "Metabotropic glutamate receptor 8 (Rattus norvegicus)", 2.75),
]

For the compound COc1ccc(NC(=O)COC(=O)C2CCCCC2)c([N+](=O)[O-])c1 , what z-score is on record?
0.159

====

# Target entity: Metabotropic glutamate receptor 8 (Rattus norvegicus) (UniProt P70579)
# Test: mGluR8 Gi/Go-coupled signaling modulation – cell-based, rat, thallium flux, HTS, primary screen (AID 488969)
# Measurement setup: HEK293 rat mGluR8, GIRK (G protein-gated inwardly rectifying potassium channel) thallium flux, FluoZin2; at 10 µM; stronger effect = higher value; submaximal glutamate (EC20) added with thallium
Whole data set: some 110,000 compounds, median “z-score” near -0.1, cut for the highest 2% near 2. What follows is part of a selection rich in the highest values, with near analogues and random picks from the rest. Active and inactive are the calls of the source.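 Rule for the calls: active = z-score in the third read window above 3 or below -3; inactive = the rest.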
Known z-score of a selection of compounds

For orientation, consider the following solved cases.
# Compound, Reported value
rows = [
    ("Cc1cccc(C(=O)/C=C2/c3ccccc3CC(C)(C)N2C)c1", -0.509),
    ("O=C(/C=C/c1cccs1)Nc1ccc(Br)cn1", -0.222),
    ("C=CCn1c(Oc2cc(C)ccc2C)nc2c1c(=O)n(C)c(=O)n2C", 0.128),
    ("CCOc1cc2[nH]c(=S)n(CCCN(CC)CC)c(=O)c2cc1OCC", -0.475),
    ("COc1ccc2nc(NC(=S)N(C)C)sc2c1", "14.8 (active)"),
    ("COC(=O)Cn1c(CN2CCc3ccccc3C2)nc2c1c(=O)n(C)c(=O)n2C", "5.81 (active)"),
    ("CC(C)n1c(=S)[nH]c2ccccc21", -0.0644),
    ("O=C(CN1C(=O)CCS(=O)(=O)c2ccccc21)Nc1cccc(F)c1", -0.608),
]

Which measured z-score belongs to COc1cc(S(=O)(=O)N2CCOCC2)ccc1NC(=O)COC(=O)CC12CC3CC(CC(C3)C1)C2 , tested on Metabotropic glutamate receptor 8 (Rattus norvegicus) (UniProt P70579)?
0.016

Which measured z-score belongs to CCOc1cc2[nH]c(=S)n(C(C)C)c(=O)c2cc1OCC , tested on Metabotropic glutamate receptor 8 (Rattus norvegicus) (UniProt P70579)?
9.84 (active)

Which measured z-score belongs to Cc1ccnc(N(C(=O)c2cccs2)C(=O)c2cccs2)c1 , tested on Metabotropic glutamate receptor 8 (Rattus norvegicus) (UniProt P70579)?
-0.0449
